Parameter viability, T/C: see the listing below.
System: KRAS-mutant PDC tumor spheroid with HUVEC/MSC, viability
Test: Anticancer human tumor 327498-153-R-J2-PDC patient-derived uterine carcinosarcoma cell line growth inhibition [KRAS2]
Settings: second compound 10 µM; first compound 0.1 µM; stronger effect = lower value
State the answer as a number, implicitly in %.

1) COC(=O)c1ccc2c(C(=Nc3ccc(N(C)C(=O)CN4CCN(C)CC4)cc3)c3ccccc3)c(O)[nH]c2c1 + CNCc1ccccc1-c1csc(C(C)Nc2nc(C)nc3cc(OC)c(OC)cc23)c1 :: 0.37

Need viability, T/C, item CC1(C)CCC(CN2CCN(c3ccc(C(=O)NS(=O)(=O)c4ccc(NCC5CCOCC5)c([N+](=O)[O-])c4)c(Oc4cnc5[nH]ccc5c4)c3)CC2)=C(c2ccc(Cl)cc2)C1 + CC1OCC2(CCN(c3cnc(Sc4ccnc(N)c4Cl)c(N)n3)CC2)C1N
28.6

Request: CC(C)n1nc(-c2ccc3oc(N)nc3c2)c2c(N)ncnc21 + COc1cc2nc(C)nc(NC(C)c3cc(N)cc(C(F)(F)F)c3)c2cc1OC1CCOC1
1.94

Request: CC1(C)CCC(CN2CCN(c3ccc(C(=O)NS(=O)(=O)c4ccc(NCC5CCOCC5)c([N+](=O)[O-])c4)c(Oc4cnc5[nH]ccc5c4)c3)CC2)=C(c2ccc(Cl)cc2)C1 + CNCc1ccccc1-c1csc(C(C)Nc2nc(C)nc3cc(OC)c(OC)cc23)c1
0.15

Request: CCN1CCN(Cc2ccc(Nc3ncc(F)c(-c4cc(F)c5nc(C)n(C(C)C)c5c4)n3)nc2)CC1 + CNCc1ccccc1-c1csc(C(C)Nc2nc(C)nc3cc(OC)c(OC)cc23)c1
0.68

Request: Cn1ncnc1[C@H]1c2n[nH]c(=O)c3cc(F)cc(c23)N[C@@H]1c1ccc(F)cc1 + C=CC(=O)N1CCN(c2nc(=O)n(-c3c(C)ccnc3C(C)C)c3nc(-c4c(O)cccc4F)c(F)cc23)C(C)C1
13.4

----------
Test system: KRAS-mutant PDC tumor spheroid with HUVEC/MSC, viability
Assay: Anticancer human tumor 327498-153-R-J2-PDC cell line growth inhibition [KRAS2];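 note: spheroids exposed to agents for seven days before reading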;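 for viability, T/C: 100% = DMSO vehicle wells so lower means fewer viable cells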
Conditions: second compound 1 µM; first compound 3.16 µM; stronger effect = lower value
Parameter viability, T/C: see the listing below.
State the answer as a number, implicitly in %.

Some solved entries appear below for comparison.
1) CC(C)NCC(C(=O)N1CCN(c2ncnc3c2C(C)CC3O)CC1)c1ccc(Cl)cc1 (stereo not drawn) + COc1cc2nc(C)nc(NC(C)c3cc(N)cc(C(F)(F)F)c3)c2cc1OC1CCOC1 :: 7.32
2) CC(=O)OC12COC1CC(O)C1(C)C(=O)C(O)C3=C(C)C(OC(=O)C(O)C(NC(=O)OC(C)(C)C)c4ccccc4)CC(O)(C(OC(=O)c4ccccc4)C21)C3(C)C (stereo not drawn) + CC1OCC2(CCN(c3cnc(Sc4ccnc(N)c4Cl)c(N)n3)CC2)C1N :: 11.8

With those in mind, consider the next compound.
Need viability, T/C, item CC1OCC2(CCN(c3cnc(Sc4ccnc(N)c4Cl)c(N)n3)CC2)C1N (stereo not drawn) + C=CC(=O)N1CCN(c2nc(OCC3CCCN3C)nc3c2CCN(c2cccc4cccc(C)c24)C3)CC1CC#N
14.3

----------
Parameter IC50: see the listing below.
System: KRAS-mutant PDC tumor spheroid with HUVEC/MSC, viability
Experiment: Anticancer human tumor 327498-153-R-J2-PDC cell line growth inhibition [KRAS2];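 note: spheroids exposed to agents for seven days before reading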
Conditions: curve of first compound; second compound 0.316 µM
State the answer as a number, implicitly in nM.

1. CC(C)n1nc(-c2ccc3oc(N)nc3c2)c2c(N)ncnc21 + C=CC(=O)N1CCN(c2nc(OCC3CCCN3C)nc3c2CCN(c2cccc4cccc(C)c24)C3)CC1CC#N :: 0.586
2. CCNC(=O)CC1N=C(c2ccc(Cl)cc2)c2cc(OC)ccc2-n2c(C)nnc21 (stereo not given) + CNCc1ccccc1-c1csc(C(C)Nc2nc(C)nc3cc(OC)c(OC)cc23)c1 :: 478
3. COc1cc2nccc(Oc3ccc(NC(=O)C4(C(=O)Nc5ccc(F)cc5)CC4)cc3)c2cc1OC + COc1cc2nc(C)nc(NC(C)c3cc(N)cc(C(F)(F)F)c3)c2cc1OC1CCOC1 :: 534

With those in mind, consider the next molecule.
Need IC50, item COc1cc2nccc(Oc3ccc(NC(=O)C4(C(=O)Nc5ccc(F)cc5)CC4)cc3)c2cc1OC + C=CC(=O)N1CCN(c2nc(=O)n(-c3c(C)ccnc3C(C)C)c3nc(-c4c(O)cccc4F)c(F)cc23)C(C)C1
1150

----------
Tested on: KRAS-mutant PDC tumor spheroid with HUVEC/MSC, viability
Test: Anticancer human tumor 327498-153-R-J2-PDC cell line growth inhibition [KRAS2];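 note: spheroids exposed to agents for seven days before reading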;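 for viability, T/C: 100% = DMSO vehicle wells so lower means fewer viable cells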
Conditions: second compound 1 µM; first compound 10 µM; stronger effect = lower value
Decision: viability, T/C beneath 5% gives condition met; viability, T/C meeting or exceeding 5% gives condition not met.

Would you please look over these solved cases?
1) CC1(C)CCC(CN2CCN(c3ccc(C(=O)NS(=O)(=O)c4ccc(NCC5CCOCC5)c([N+](=O)[O-])c4)c(Oc4cnc5[nH]ccc5c4)c3)CC2)=C(c2ccc(Cl)cc2)C1 + CC1OCC2(CCN(c3cnc(Sc4ccnc(N)c4Cl)c(N)n3)CC2)C1N :: condition met
2) COC(=O)c1ccc2c(C(=Nc3ccc(N(C)C(=O)CN4CCN(C)CC4)cc3)c3ccccc3)c(O)[nH]c2c1 + CNCc1ccccc1-c1csc(C(C)Nc2nc(C)nc3cc(OC)c(OC)cc23)c1 :: condition met
3) COc1cc(Nc2ncc3c(n2)-c2ccc(Cl)cc2C(c2c(F)cccc2OC)=NC3)ccc1C(=O)O + C=CC(=O)N1CCN(c2nc(OCC3CCCN3C)nc3c2CCN(c2cccc4cccc(C)c24)C3)CC1CC#N :: condition not met
4) CC(C)NCC(C(=O)N1CCN(c2ncnc3c2C(C)CC3O)CC1)c1ccc(Cl)cc1 (stereo not given) + CC1OCC2(CCN(c3cnc(Sc4ccnc(N)c4Cl)c(N)n3)CC2)C1N :: condition not met

Take the compound CC1OCC2(CCN(c3cnc(Sc4ccnc(N)c4Cl)c(N)n3)CC2)C1N (stereo not given) + COc1cc2nc(C)nc(NC(C)c3cc(N)cc(C(F)(F)F)c3)c2cc1OC1CCOC1 and say whether its viability, T/C is less than 5%.
condition not met

----------
Tested on: KRAS-mutant PDC tumor spheroid with HUVEC/MSC, viability
Assay: Anticancer human tumor 327498-153-R-J2-PDC cell line growth inhibition [KRAS2];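 note: spheroids exposed to agents for seven days before reading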;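 for viability, T/C: 100% = DMSO vehicle wells so lower means fewer viable cells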
Settings: second compound 1 µM; first compound 3.16 µM; stronger effect = lower value
Text: Multicellular complex tumor spheroid response to RAS pathway inhibitors in combination with a targeted agents in patient-derived cell lines with oncogenic KRAS variants from multiple cancer types A high-throughput screen of multi-cell type tumor spheroids was designed to identify active combinations of targeted small molecules and KRAS pathway inhibitors. […] Compounds. […] If the clinical Cmax for an agent had not been determined, the highest concentration tested was 10 microM. […]
Parameter viability, T/C: see the listing below.
State the answer as a number, implicitly in %.

Some solved entries appear below for comparison.
1) COc1cc2nccc(Oc3ccc(NC(=O)C4(C(=O)Nc5ccc(F)cc5)CC4)cc3)c2cc1OC + COc1cc2nc(C)nc(NC(C)c3cc(N)cc(C(F)(F)F)c3)c2cc1OC1CCOC1 :: 0.96
2) Cn1nccc1Nc1nccc(-c2cc3c(s2)C(C)(C)N(CCN2CCOCC2)C3=O)n1 + CNCc1ccccc1-c1csc(C(C)Nc2nc(C)nc3cc(OC)c(OC)cc23)c1 :: 41.3
3) COc1cc(Nc2ncc3c(n2)-c2ccc(Cl)cc2C(c2c(F)cccc2OC)=NC3)ccc1C(=O)O + C=CC(=O)N1CCN(c2nc(=O)n(-c3c(C)ccnc3C(C)C)c3nc(-c4c(O)cccc4F)c(F)cc23)C(C)C1 :: 12.5
4) CCNC(=O)CC1N=C(c2ccc(Cl)cc2)c2cc(OC)ccc2-n2c(C)nnc21 (stereo not given) + C=CC(=O)N1CCN(c2nc(=O)n(-c3c(C)ccnc3C(C)C)c3nc(-c4c(O)cccc4F)c(F)cc23)C(C)C1 :: 26.2

Field: viability, T/C (KRAS-mutant PDC tumor spheroid with HUVEC/MSC, viability). Entry: COC(=O)c1ccc2c(C(=Nc3ccc(N(C)C(=O)CN4CCN(C)CC4)cc3)c3ccccc3)c(O)[nH]c2c1 + CC1OCC2(CCN(c3cnc(Sc4ccnc(N)c4Cl)c(N)n3)CC2)C1N
14.5

----------
Parameter viability, T/C: see the listing below.
Test system: KRAS-mutant PDC tumor spheroid with HUVEC/MSC, viability
Assay: Anticancer human tumor 327498-153-R-J2-PDC cell line growth inhibition [KRAS2];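 note: spheroids exposed to agents for seven days before reading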;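 for viability, T/C: 100% = DMSO vehicle wells so lower means fewer viable cells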
Conditions: second compound 0.316 µM; first compound 1 µM; stronger effect = lower value
State the answer as a number, implicitly in %.

1. CC1COCCN1c1cc(-c2ccnn2C)c2ccnc(-c3ccn[nH]3)c2n1 (stereo not drawn) + CC1OCC2(CCN(c3cnc(Sc4ccnc(N)c4Cl)c(N)n3)CC2)C1N :: 7.64
2. O=C(c1cc(Cc2n[nH]c(=O)c3ccccc23)ccc1F)N1CCN(C(=O)C2CC2)CC1 + C=CC(=O)N1CCN(c2nc(=O)n(-c3c(C)ccnc3C(C)C)c3nc(-c4c(O)cccc4F)c(F)cc23)C(C)C1 :: 46.8

Need viability, T/C, item COC(=O)c1ccc2c(C(=Nc3ccc(N(C)C(=O)CN4CCN(C)CC4)cc3)c3ccccc3)c(O)[nH]c2c1 + CNCc1ccccc1-c1csc(C(C)Nc2nc(C)nc3cc(OC)c(OC)cc23)c1
22.6

Reference source for all entries: PubChem BioAssay AID1963867
